Reference source for all entries: patent US6342511B1

molecular target: PCP1 sites (Rattus norvegicus, UniProt P35439); construct: membrane preparations originating from anterior cerebrum homogenates of rats; from tissue; host or cells: rat anterior cerebrum (forebrain/cortex) membranes; experiment: [3H]TCP displacement, cortex membranes, 1-site model; format: binding; details: cortex 1 site IC50, [3H]TCP 1 nM, rat cortex (anterior cerebrum) membranes
Consider the following molecules; for each one, report its IC50.
Return type: number; implicit unit µM.

Challenge: Query (molecule): CC1CCCN(C2(c3cccs3)CCCCC2)C1 (racemic) [Ex 22 (±)] ; field requested: IC50
Response given: 0.0055

Challenge: Query (molecule): CC1CSCCC1(c1cccs1)N1CCCCC1 (single isomer, unassigned) [Ex 1 (majority)] ; field requested: IC50
Response given: 17.2

Challenge: Query (molecule): CC1CSCCC1(c1cccs1)N1CCCCC1 (single isomer, unassigned) [Ex 1 (minority)] ; field requested: IC50
Response given: 0.0268

Challenge: Query (molecule): CC1CCCN(C2(c3cccs3)CCCCC2)C1 (single isomer, unassigned) [Ex 22 (+)] ; field requested: IC50
Response given: 0.0052

Challenge: Query (molecule): `CCNC1(c2cccs2)CCCCC1` ; field requested: IC50
Response given: 0.0209

Challenge: Query (molecule): CC1CCCN(C2(c3cccs3)CCCCC2)C1 (single isomer, unassigned) [Ex 22 (−)] ; field requested: IC50
Response given: 0.158

Challenge: Query (molecule): `C[C@H]1CCCN(C2(c3cc4ccccc4s3)CCSCC2)C1` ; field requested: IC50
Response given: 82.8

====

target: PCP1 sites (Rattus norvegicus); construct: membrane preparations originating from anterior cerebrum homogenates of rats; from tissue; host or cells: rat anterior cerebrum (forebrain/cortex) membranes; experiment: [3H]TCP displacement, cortex membranes, 1-site model; assay type: binding; settings: [3H]TCP 1 nM, rat cortex (anterior cerebrum) membranes; read-out: cortex 1 site IC50
pIC50: −log10 of the molar value.
Entry flag: 1 (yes) if pIC50 reaches 7; 0 (no) if it does not.

Challenge: # check: pIC50 of `c1csc(C2(N3CCCCC3)CCOCC2)c1` is greater than or equal to 7
Response given: 0 (no)

Challenge: # check: pIC50 of `C[C@@H]1CCCN(C2(c3cccs3)CCSCC2)C1` is greater than or equal to 7
Response given: 1 (yes)

Challenge: # check: pIC50 of OCC1CCCN(C2(c3cccs3)CCCCC2)C1 (centres unmarked) is greater than or equal to 7
Response given: 1 (yes)

Challenge: # check: pIC50 of `c1ccc2oc(C3(N4CCCCC4)CCSCC3)cc2c1` is greater than or equal to 7
Response given: 0 (no)

Challenge: # check: pIC50 of `Cc1ccc(C2(N3CCCCC3)CCSCC2)s1` is greater than or equal to 7
Response given: 0 (no)

Challenge: # check: pIC50 of `c1coc(C2(N3CCCCC3)CCCCC2)c1` is greater than or equal to 7
Response given: 1 (yes)

====

molecular target: PCP3 sites; test: [3H]TCP displacement, cerebellum membranes, 2-site model, PCP3; format: binding; conditions: [3H]TCP 2.5 nM, rat cerebellum; bound in μM
QUANTITY KIND: IC50

Challenge: Query (molecule): `Cc1ccc(C2(N3CCCCC3)CCSCC2)s1` ; field requested: IC50
Response given: > 100 µM
